# System: P388/0 tumor cells
# method-summary: Lymphocytic Leukemia P388/0 Test
# Format: in vivo, CD2-F1 mice
# condition-context: intraperitoneally on days 1, 5, and 9 relative to tumor implant
# Protocol: Methods for evaluating the antitumour activity of these compounds are essentially those used in the Tumor Panel by the Developmental Therapeutics Program, Division of Cancer Treatment, National Cancer institute, A. Goldin, et al., Methods in Cancer Research, Vol. XVI, p. 165, Academic Press (1979). […] CD2-F1 mice, of the same sex, weighing 20t3g are used for this test. […] In each test several dose levels which bracket the LD20 for the compound are evaluated; each dose level group contains 6 animals. […]
Optimal Dose values, listed per item
State just the number; it will be interpreted in mg/kg.

[ask] Quick one: Optimal Dose of CC(CO)(CO)NCc1c2ccccc2cc2cc3ccccc3cc12 ?
[reply] 60

[ask] Could you do the same for CC(CO)(CO)NCc1cc2ccc3ccccc3c2c2ccccc12 , please?
[reply] 15

[ask] Could you do the same for CC(CO)(CO)NCc1c2ccccc2cc2c1ccc1ccccc12 , please?
[reply] 220

[ask] Could you do the same for CC(CO)(CO)NCc1c2ccccc2c2ccc3cccc4ccc1c2c43 , please?
[reply] 111

[ask] Could you do the same for CC(CO)(CO)NCc1c2ccccc2c(Cl)c2cc3ccccc3cc12 , please?
[reply] 75

[ask] Could you do the same for CC(CO)(CO)NCc1c2c(cc3ccccc13)Cc1ccccc1-2 , please?
[reply] 225

[ask] Could you do the same for CC(CO)(CO)NCc1c2ccccc2c(Cl)c2cc3ccccc3cc12.Cl , please?
[reply] 40

====

# method-summary: LD20 determined in the P388/0 test
# Assay type: in vivo
# condition-context: intraperitoneally on days 1, 5, and 9; tumor-bearing mice
LD20 values, listed per item
State just the number; it will be interpreted in mg/kg.

CC(CO)(CO)NCc1cc2ccc3ccccc3c2c2ccccc12 :: 10
CC(CO)(CO)NCc1c2ccccc2cc2c1ccc1ccccc12 :: 180
CC(CO)(CO)NCc1c2ccccc2c(Cl)c2cc3ccccc3cc12.Cl :: 70

[ask] Quick one: LD20 of CC(CO)(CO)NCc1c2ccccc2c2ccc3cccc4ccc1c2c43 ?
[reply] 100
